Origin of measurements: ChEMBL document CHEMBL1287696

The molecules listed here are annotated with their Activity.
biological target: UniProtKB P42262; test: Positive modulation of human GluA2 flip receptor by FLIPR assay relative to cyclothiazide; design: concentration or dose not given beside the values
Sequence (P42262 whole entry): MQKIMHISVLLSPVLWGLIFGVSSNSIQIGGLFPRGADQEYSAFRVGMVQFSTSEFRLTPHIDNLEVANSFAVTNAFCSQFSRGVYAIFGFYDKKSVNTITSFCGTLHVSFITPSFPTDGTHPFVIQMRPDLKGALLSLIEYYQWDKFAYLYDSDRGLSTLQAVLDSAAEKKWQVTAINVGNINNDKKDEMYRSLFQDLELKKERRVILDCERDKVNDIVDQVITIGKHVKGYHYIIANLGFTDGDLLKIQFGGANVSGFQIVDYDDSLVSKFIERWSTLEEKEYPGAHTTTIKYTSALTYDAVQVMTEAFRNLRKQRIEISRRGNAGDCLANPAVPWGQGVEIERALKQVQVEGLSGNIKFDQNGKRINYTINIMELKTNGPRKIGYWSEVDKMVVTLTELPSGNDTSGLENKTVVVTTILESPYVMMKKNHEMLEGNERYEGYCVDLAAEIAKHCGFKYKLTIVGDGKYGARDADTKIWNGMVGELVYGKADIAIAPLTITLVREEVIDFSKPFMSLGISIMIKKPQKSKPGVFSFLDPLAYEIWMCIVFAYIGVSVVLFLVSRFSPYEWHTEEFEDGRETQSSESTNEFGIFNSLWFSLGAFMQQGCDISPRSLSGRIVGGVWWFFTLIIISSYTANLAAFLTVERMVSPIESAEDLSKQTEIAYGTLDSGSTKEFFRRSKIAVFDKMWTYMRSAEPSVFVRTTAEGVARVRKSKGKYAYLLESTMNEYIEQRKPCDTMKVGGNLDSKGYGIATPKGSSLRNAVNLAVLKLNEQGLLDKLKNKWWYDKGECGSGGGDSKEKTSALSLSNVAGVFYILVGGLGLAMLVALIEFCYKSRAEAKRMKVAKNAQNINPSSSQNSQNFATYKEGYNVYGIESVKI
Report the value in % with no unit label.

Previously resolved entries follow.
[[record]]
molecule = "CC(=O)c1cccc(-c2ccc(C3CN(C)C[C@@H]3NS(=O)(=O)C(C)C)cc2)c1 (single isomer, unassigned)"
measured_on = "UniProtKB P42262"
experimental_endpoint = "Activity"
unit_info = "%"
val = 73

[[record]]
molecule = "CC(C)S(=O)(=O)N[C@@H]1COCC1c1ccc(-c2cccs2)cc1 (single isomer, unassigned)"
measured_on = "UniProtKB P42262"
experimental_endpoint = "Activity"
unit_info = "%"
val = 117

[[record]]
molecule = "CC(C)S(=O)(=O)N[C@@H]1COCC1c1ccc(-c2ccc(F)cn2)cc1 (single isomer, unassigned)"
measured_on = "UniProtKB P42262"
experimental_endpoint = "Activity"
unit_info = "%"
val = 117

[[record]]
molecule = "CC(=O)Nc1cccc(-c2ccc(C3CN(C)C[C@@H]3NS(=O)(=O)C(C)C)cc2)c1 (single isomer, unassigned)"
measured_on = "UniProtKB P42262"
experimental_endpoint = "Activity"
unit_info = "%"
val = 79


Lookup: Activity / UniProtKB P42262 / CC(C)S(=O)(=O)N[C@H]1CN(C)CC1c1ccc(-c2ccc(F)nc2)cc1 (single isomer, unassigned)
117

Recorded Activity for CC(C)S(=O)(=O)N[C@@H]1COCC1c1ccc(-c2ccsc2)cc1 (single isomer, unassigned) with UniProtKB P42262, please?
120
